In this section we review reported GI50 values for a set of compounds.
# Test system: UO-31 renal
# METHOD DESCRIPTION: NCI tumour cell line growth inhibition, 48 h
MEASUREMENT NAME: GI50

# COMPOUND, MEASUREMENT NAME, DATA VALUE
data = [
    ("COc1ccccc1C#Cc1ccccc1C#CCCCCO", "GI50", "16.8 µM"),
    ("[C](#Cc1ccccc1)[Hg][C]#Cc1ccccc1", "GI50", "32.5 µM"),
    ("CCOC(=O)c1sc(-c2ccc(OS(=O)(=O)c3ccccc3[N+](=O)[O-])c(C=O)c2)nc1C", "GI50", "2.36 µM"),
    ("O=C(O)c1ccc(NCn2nc(-c3ccccc3O)oc2=S)cc1", "GI50", "> 100 µM"),
    ("O=S(=O)(NC1=NCCN1C(=S)SN1CCn2c1nsc2=S)c1cccc2ccccc12", "GI50", "26.6 µM"),
    ("CC(=O)c1ccc2c(c1)C1C=CCC1[C@H](c1cc3c(cc1Br)OCO3)N2 (stereo partly drawn)", "GI50", "1.89 µM"),
    ("CC(=O)Oc1ccc(C23c4ccccc4C2(OC(C)=O)c2cc(OC(C)=O)ccc23)cc1 (stereo not drawn)", "GI50", "1.85 µM"),
    ("Cc1nn[n-]n1.N.N.N.N.N.[Cl-].[Co+3]", "GI50", "> 100 µM"),
    ("CCC[CH2][Sn]([Cl])([Cl])[CH2]CCC", "GI50", "1.39 µM"),
    ("COc1ccc2cc(/C=C/C(=O)c3ccc(Cl)cc3Cl)ccc2c1", "GI50", "36.6 µM"),
    ("Nc1ccccc1C#C/C=C\\C#Cc1ccc(OCCCNC(=O)c2cc3ccccc3[nH]2)cc1", "GI50", "41.7 µM"),
    ("OCc1ccc(N2CCc3cccc(F)c3C2)cc1Cl", "GI50", "14.5 µM"),
    ("O=C(/C=C/c1ccccc1)C(Br)C(Br)c1ccccc1 (stereo not drawn)", "GI50", "1.19 µM"),
]

The measured values listed here are drawn from PubChem BioAssay (NCI).
